# maps each entry to its inhibition at 1 µM
biological target: Kv1.5 (Homo sapiens); construct: expressed in transfected cells; host or cells: HEK or LTK- cells; assay: Kv1.5 Patch Clamp EP; format: cell-based; conditions: 1.0 μM, single point; whole cell patch clamp, Kv1.5 stably over expressed in HEK or LTK- cells

molecule | inhibition at 1 µM / %
COc1ccc(CCN2C(=O)N(NS(C)(=O)=O)CC2c2ccc3c(c2)OCO3)cc1 (stereo not shown) | 46
COc1ccc(CCN2C(=O)N(N)CC2c2ccc(OC(F)(F)F)cc2)cc1 (stereo not shown) | 7
CS(=O)(=O)NN1CC(c2ccc(C3CC3)cc2)N(CCCc2ccccc2)C1=O (stereo not shown) | 83
COc1ccc(C2CN(N)C(=O)N2CCc2ccc(OC(F)F)cc2)cc1 (stereo not shown) | 7

----------
# maps each entry to its inhibition at 1 µM
target: Kv1.5 (Homo sapiens); construct: expressed in transfected cells; host or cells: HEK or LTK- cells; assay: Kv1.5 Patch Clamp EP; type: cell-based; conditions: 1.0 μM, single point; whole cell patch clamp, Kv1.5 stably over expressed in HEK or LTK- cells

molecule | inhibition at 1 µM
CN(C)CCOc1ccc(CCN2C(=O)N(NS(C)(=O)=O)CC2c2ccc(C(C)(C)C)cc2)cc1 (centres unmarked) [Compound 118] | 9%
COc1ccc(CCN2C(=O)N(NS(=O)(=O)Cc3cccnc3)CC2c2ccc(OC(F)F)cc2)cc1 (centres unmarked) [Compound 42] | 91%
CCC1(CC)CN(NS(=O)(=O)Cc2cccnc2)C(=O)N1CCc1ccc(OC)cc1 [Compound 162] | 8%
CCN(CC)c1ccc(C2CN(NS(C)(=O)=O)C(=O)N2CCc2ccc(OC)cc2)cc1 (centres unmarked) [Compound 25] | 84%
COc1ccc(CCN2C(=O)N(NS(C)(=O)=O)C[C@@H]2c2ccc(C(C)(C)C)cc2)cc1 [Compound 173] | 94%
COc1ccc(CCN2C(=O)N(NS(C)(=O)=O)CC2c2ccc(C(C)(C)C)cc2)cc1 (centres unmarked) [Compound 24] | 82%
COc1ccc(CCN2C(=O)N(NCCc3ccccc3)CC2c2ccc(C)c(C)c2)cc1 (centres unmarked) [Compound 97] | 81%
COc1ccc(CCCN2C(=O)N(NS(=O)(=O)CC(N)=O)CC2c2ccc(C3CC3)cc2)cc1 (centres unmarked) [Compound 104] | 87%

----------
biological target: Kv1.5 (Homo sapiens, UniProt P22460); construct: expressed in transfected cells; host or cells: HEK or LTK- cells; assay: Kv1.5 Patch Clamp EP; format: cell-based; settings: 1.0 μM, single point; whole cell patch clamp, Kv1.5 stably over expressed in HEK or LTK- cells
Sequence (P22460 whole entry): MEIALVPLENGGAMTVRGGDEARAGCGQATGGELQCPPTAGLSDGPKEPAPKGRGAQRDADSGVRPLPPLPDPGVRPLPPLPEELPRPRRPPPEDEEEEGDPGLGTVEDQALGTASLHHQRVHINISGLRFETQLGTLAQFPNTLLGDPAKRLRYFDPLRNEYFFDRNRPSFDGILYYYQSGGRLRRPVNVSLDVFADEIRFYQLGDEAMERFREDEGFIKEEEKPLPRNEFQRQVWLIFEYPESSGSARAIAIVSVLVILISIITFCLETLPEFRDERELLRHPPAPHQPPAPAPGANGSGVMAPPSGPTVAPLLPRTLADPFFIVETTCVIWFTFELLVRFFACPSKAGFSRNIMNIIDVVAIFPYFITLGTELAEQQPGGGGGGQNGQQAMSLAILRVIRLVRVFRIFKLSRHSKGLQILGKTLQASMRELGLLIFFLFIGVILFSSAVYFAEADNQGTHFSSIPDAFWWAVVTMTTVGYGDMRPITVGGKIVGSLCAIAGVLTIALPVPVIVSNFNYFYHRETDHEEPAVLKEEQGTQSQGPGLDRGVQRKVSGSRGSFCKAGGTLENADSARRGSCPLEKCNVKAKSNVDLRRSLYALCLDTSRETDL

compound | inhibition at 1 µM
COc1ccc(C2CN(NS(C)(=O)=O)C(=O)N2CCCc2ccccc2)cc1 (centres unmarked) | 40%
COc1ccc(CCN2C(=O)N(NS(=O)(=O)CC(=O)NC3CC3)CC2c2ccc(OC)cc2)cc1 (centres unmarked) | 39%
COc1ccc(CCCN2C(=O)N(NS(=O)(=O)CS(C)(=O)=O)CC2c2ccc(OC)cc2)cc1 (centres unmarked) | 46%
COCCOc1ccc(C2CN(NS(C)(=O)=O)C(=O)N2CCc2ccc(OC)cc2)cc1 (centres unmarked) | 8%
COc1ccc(CCN2C(=O)N(NC(=O)OC(C)(C)C)CC2c2ccc(C)c(C)c2)cc1 (centres unmarked) | 92%
COc1ccc(CCN2C(=O)N(N)CC2c2ccc(C(C)(C)C)cc2)cc1 (centres unmarked) | 46%
COc1ccc(CCN2C(=O)N(NS(=O)(=O)CC(=O)NCC3CC3)CC2c2ccc(OC)cc2)cc1 (centres unmarked) | 66%
COc1ccc(CCN2C(=O)N(NC(C)=O)CC2Cc2ccc(C(C)(C)C)cc2)cc1 (centres unmarked) | 94%

Source of measurements: patent US7504517B2
